- assay_target: human CB2 receptor (Homo sapiens, UniProt P34972)
- Sequence (P34972 whole entry): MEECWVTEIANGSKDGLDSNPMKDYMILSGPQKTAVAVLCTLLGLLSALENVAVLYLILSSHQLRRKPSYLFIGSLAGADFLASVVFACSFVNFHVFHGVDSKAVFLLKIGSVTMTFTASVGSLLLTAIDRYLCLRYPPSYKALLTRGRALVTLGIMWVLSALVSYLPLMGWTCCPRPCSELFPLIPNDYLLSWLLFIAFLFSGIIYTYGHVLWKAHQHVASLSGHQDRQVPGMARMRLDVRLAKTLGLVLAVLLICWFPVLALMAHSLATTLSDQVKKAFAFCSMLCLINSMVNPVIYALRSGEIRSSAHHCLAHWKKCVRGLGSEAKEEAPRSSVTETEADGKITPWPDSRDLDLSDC
- assay_details: cAMP Hunter functional assay in NKH-477-stimulated CHO-K1 cells overexpressing CB2R

>  <structure_smiles>
CC(C)n1c(=O)c(C(=O)NC23CC4CC(CC(C4)C2)C3)c(O)c2c1cnn2C

>  <EC50 [nM]>
1590

$$$$

* * *

- assay_target: UniProt P34972
- assay_details: Competition binding assay, displacement of [3H]-CP-55,940, CB2R
- condition_details: CB2R Ki, membranes from HEK cells, [3H]CP-55,940; mean ± SD, at least three experiments in duplicate
pKi: −log10 of the molar value.
measurement_label: pKi

>  <compound>
CCCCCn1c(=O)c(C(=O)NC23CC4CC(CC(C4)C2)C3)c(O)c2c1c(C)nn2C [Compound 52]

>  <censoring_sign>
=

>  <quantitative_result>
7.47

$$$$
>  <compound>
C#CCn1ncc2c1c(O)c(C(=O)NC13CC4CC(CC(C4)C1)C3)c(=O)n2C(C)C [Compound 58]

>  <censoring_sign>
=

>  <quantitative_result>
7.21

$$$$
>  <compound>
CC(C)n1c(=O)c(C(=O)NC23CC4CC(CC(C4)C2)C3)c(O)c2c1cnn2C [Compound 57]

>  <censoring_sign>
=

>  <quantitative_result>
7.27

$$$$
>  <compound>
CCCCn1c(=O)c(C(=O)NC23CC4CC(CC(C4)C2)C3)c(O)c2c1c(C)nn2C [Compound 51]

>  <censoring_sign>
=

>  <quantitative_result>
7.45

$$$$
>  <compound>
CC(C)n1c(=O)c(C(=O)NC23CC4CC(CC(C4)C2)C3)c(O)c2nn(C)cc21 [Compound 21]

>  <censoring_sign>
<

>  <quantitative_result>
5.00

$$$$
>  <compound>
C#CCn1cc2c(n1)c(O)c(C(=O)NC13CC4CC(CC(C4)C1)C3)c(=O)n2C(C)C [Compound 59]

>  <censoring_sign>
<

>  <quantitative_result>
5.00

$$$$
